- System: BT-549 breast
- procedure text: NCI tumour cell line growth inhibition, 48 h
In this section we review reported TGI values for a set of molecules.
Numeric only. Scale: µM

[Q] # input molecule: C=C1C(=O)O[C@@H]2C[C@@]3(C)CCC[C@H](C)C3=C[C@H]12 ; wanted: its TGI
[A] 15.7

[Q] How about C=C1C(=O)O[C@@H]2[C@H]1C[C@@H](O)[C@H](C)[C@@](O)(C(=O)/C=C/C)[C@H]2OC(=O)C(C)CC (some centres not stated) ?
[A] 13.3

[Q] How about O=C1/C(=C\c2ccc(Cl)cc2Cl)Sc2scc(-c3cccc([N+](=O)[O-])c3)[n+]21 ?
[A] 18.1

Now consider the entry below.
[Q] # input molecule: CC(C)=CC1C(COC(=O)c2cc3c(cc2Cl)OCO3)C1(C)C (configuration not stated) ; wanted: its TGI
[A] 81.8

---

- Tested on: TK-10 renal
- procedure text: NCI tumour cell line growth inhibition, 48 h
Where a SMILES comes first, the peptide text is derived from it. The star is where a group is joined. Boc = CC(C)(C)OC(=O)*
assay readout: TGI

[Q] # input molecule: CCC(C)(C)C(=O)O[C@H]1C[C@@H](C)C=C2C=C[C@H](C)[C@H](CC[C@@H]3C[C@@H](O)CC(=O)O3)[C@H]21 ; wanted: its TGI
[A] 18.2 µM

[Q] How about CC(NC(=O)C(NC(=O)OC(C)(C)C)C(C)C)C(=O)N1CCCC1C(=O)NCC(=O)NC(C(=O)NCC(=O)O)C(C)C (stereo not drawn) (Boc-VAPGVG-OH; configuration not given here) ?
[A] > 100 µM

[Q] How about COc1ccc(C[C@@H]2Cc3cc(OC)c(OC)cc3CN2C)cc1 ?
[A] > 100 µM

***
[Q] # input molecule: Cc1ccc(NC(=O)C(=O)C2C(=O)N(c3ccccc3)N=C2N)cc1C (stereo not drawn) ; wanted: its TGI
[A] > 100 µM

[Q] How about CC1=C[C@H]2c3c(c(O)c(O)c4oc5c(C)cccc5c(=O)c34)[C@H](c3cc(O)c(O)c4oc5c(C)cccc5c(=O)c34)[C@H]2C(C)(C)C1 ?
[A] 11.7 µM

[Q] How about Cn1cc(-c2nc(-c3c[nH]c4ncccc34)cs2)c2cc(F)ccc21 ?
[A] 15.3 µM

[Q] How about OCC(CN1CCCCC1)(CN1CCCCC1)CN1CCCCC1 ?
[A] > 100 µM

[Q] How about COc1cccc(C2c3cc4c(cc3OC(C)(O)C2C)OCO4)c1O (stereo not drawn) ?
[A] 51 µM

[Q] How about CCOC(=O)/C(=C\c1ccc(O)c(OC)c1)C(=O)c1ccccc1 ?
[A] > 57.5 µM

[Q] How about O=c1cc(-c2ccccc2)[nH]c2cc(F)c(F)cc12 ?
[A] > 100 µM

---

- Test system: HL-60(TB) leukemia
- procedure text: NCI tumour cell line growth inhibition, 48 h
assay readout: TGI

These solved cases illustrate the format of a correct answer.
[Q] # input molecule: CCC[CH2][Sn]1([CH2]CCC)[O]C(=O)c2cc(I)cc(I)c2[O]1 ; wanted: its TGI
[A] 2.22 µM

[Q] How about COC(=O)CCCN(C)c1n[nH]c(N)n1 ?
[A] > 100 µM

[Q] How about COc1ccc(C(=O)C(c2ccc(OC)cc2)C2(O)C(=O)Nc3ccccc32)cc1 (stereo unspecified) ?
[A] > 100 µM

[Q] How about COc1ccc(-c2[nH]c3ccccc3c2C=C(C#N)C#N)cc1 ?
[A] 0.714 µM

[Q] How about COc1cc(C2=NN(C)C(c3ccc([N+](=O)[O-])o3)C2)cc(OC)c1OC (stereo unspecified) ?
[A] > 100 µM

[Q] How about COc1cc(O)cc(/C=C/c2ccc(O)cc2)c1 ?
[A] > 100 µM

[Q] How about CN1C(=O)c2ccccc2NC(=O)c2cnn(C)c21 ?
[A] > 100 µM

[Q] How about CN(C)c1ccc(-c2cc(=O)c3cc4c(cc3[nH]2)OCO4)cc1 ?
[A] > 100 µM

***
[Q] # input molecule: C[C@@H]1CN(C(=O)c2ccc(NC(=O)c3cc(O[C@H](C)c4c(Cl)ccc(F)c4Cl)c(N)nn3)cc2)C[C@H](C)N1 ; wanted: its TGI
[A] 3.3 µM

[Q] How about CC1=NN(c2nc(N)nc(CCl)n2)CC1 ?
[A] 40 µM

[Q] How about Cc1ccc(NC(=O)CCC(CC(=O)C(C)(C)C)=NNC(=O)C(=O)NN)cc1C ?
[A] > 100 µM

---

In this section we review reported TGI values for a set of molecules.
- Test system: OVCAR-4 ovarian
- procedure text: NCI tumour cell line growth inhibition, 48 h
Numeric only. Scale: µM

These solved cases illustrate the format of a correct answer.
[Q] # input molecule: CCN1CCC(O)(c2ccc(C)cc2)C(C(=O)c2ccc(C)cc2)C1 (stereo not given) ; wanted: its TGI
[A] 50.1

[Q] How about COc1ccc(N2C(=O)C3c4[nH]c5ccccc5c4C4CCCCCCCCCCC4C3C2=O)cc1 (stereo not given) ?
[A] 65.8

Now consider the entry below.
[Q] # input molecule: O=C(CN1CCN(c2ncnc3ccccc23)CC1)Nc1ccc(Cl)cc1C(=O)c1ccccc1Cl ; wanted: its TGI
[A] 9.36

---

In this section we review reported TGI values for a set of compounds.
- Tested on: NCI-H226 lung
- procedure text: NCI tumour cell line growth inhibition, 48 h

These solved cases illustrate the format of a correct answer.
[Q] # input compound: Cc1nc(C)c(C(=O)NNC(=O)Cc2ccccc2)cc1C(=O)NNC(=O)Cc1ccccc1 ; wanted: its TGI
[A] > 100 µM

[Q] How about O=C(CN1CCN(c2ncnc3ccccc23)CC1)Nc1ccc(Cl)cc1C(=O)c1ccccc1Cl ?
[A] 6.26 µM

[Q] How about COc1ccc(C(=O)OCC2OC(n3cnc4c(=S)nc[nH]c43)C(OC(=O)c3ccc(OC)cc3)C2OC(=O)c2ccc(OC)cc2)cc1 (stereo not given) ?
[A] > 100 µM

[Q] How about C1=Cc2ccccc2Nc2ccccc21 ?
[A] > 100 µM

[Q] How about COc1cccc2c1CCc1ccccc1CC2=O ?
[A] > 100 µM

***
[Q] # input compound: O=C1/C(=C\c2ccc(Cl)cc2Cl)Sc2scc(-c3cccc([N+](=O)[O-])c3)[n+]21 ; wanted: its TGI
[A] 38.2 µM

[Q] How about CC(C)(C)NC(C1=CC(C)(C)c2ccccc2C1=O)c1ccccc1 (stereo not given) ?
[A] 3.17 µM

[Q] How about CN(C)CCNC(=O)c1cc2ccccc2c2nc3ccccc3nc12 ?
[A] 2.44 µM

[Q] How about COc1cc(N(CCC#N)CCC#N)ccc1/C=C1\SC(=S)NC1=O ?
[A] > 100 µM

[Q] How about COc1cc2c3c(n(CCCCOC(=O)C(F)(F)F)c(=O)c2cc1OC)-c1cc2c(cc1C3=O)OCO2 ?
[A] > 100 µM

---

- Tested on: SF-295 CNS
- procedure text: NCI tumour cell line growth inhibition, 48 h
assay readout: TGI

[Q] # input compound: CC(=N/NC(=S)N1CCCCC1)/C(=N\NC(=S)N1CCCCC1)c1ccccc1 ; wanted: its TGI
[A] 3.82 µM

[Q] How about C/C=C/c1c(O)c(=O)c2c(OC)cc(OC)c3c4c(OC)cc(OC)c5c(=O)c(O)c(/C=C/C)c(c1c23)c54 ?
[A] > 100 µM

[Q] How about COc1ccc2c(=O)c(C)c(-c3ccccc3)oc2c1CN(C)C ?
[A] > 100 µM

***
[Q] # input compound: Cc1nn(-c2nc3ccccc3s2)c(C)c1Oc1ccccc1O ; wanted: its TGI
[A] 17.2 µM

[Q] How about CCOC(=O)/C(=C\c1ccc(O)c(OC)c1)C(=O)c1ccccc1 ?
[A] > 52.6 µM

[Q] How about COc1ccc2c(c1)c(=O)c1ccccc1n2/C=C/C(=O)O ?
[A] > 100 µM

---

- Test system: CCRF-CEM leukemia
- procedure text: NCI tumour cell line growth inhibition, 48 h; in the data active = GI50 below about 0.43 µM; inactive = the rest
Outcome (select one): active, inactive

[Q] For CC1=C(C(=O)Nc2ccc(F)c(Cl)c2)C(c2ccccc2Cl)NC(=S)N1 (stereo not drawn) , what call appears in the results of this test?
[A] inactive

[Q] How about COc1ccc2c(c1)C(=O)/C(=C/c1cccc(OCC(=O)Nc3nc4c(s3)CCCC4)c1)O2 ?
[A] inactive

[Q] How about O=C(CN1CCN(c2ncnc3ccccc23)CC1)Nc1ccc(Cl)cc1C(=O)c1ccccc1Cl ?
[A] inactive

[Q] How about Cn1cc(C2=C(c3cccc4ccccc34)C(=O)NC2=O)c2ccccc21 ?
[A] inactive

[Q] How about CCN(CC)CCCC(C)Nc1cnc(C(=O)Nc2ccc(Cl)c3cccnc23)cn1 (stereo not drawn) ?
[A] inactive

[Q] How about CN(C)c1ccc(N2Cc3ccccc3OC3=C2C(=O)c2c(O)ccc(O)c2C3=O)cn1 ?
[A] active

***
[Q] For O=S(=O)(O)O.[NH-]C1CCCCC1[NH-].[Pt+2] (stereo not drawn) , what call appears in the results of this test?
[A] inactive

[Q] How about COc1ccc2c(c1)c(-c1ccc(-c3cn(S(=O)(=O)c4ccccc4)c4ccc(OC)cc34)s1)cn2S(=O)(=O)c1ccccc1 ?
[A] inactive

[Q] How about C1=Cc2ccccc2Nc2ccccc21 ?
[A] inactive

[Q] How about CCC[CH2][Sn]1([CH2]CCC)[O]C(=O)c2cc(I)cc(I)c2[O]1 ?
[A] active

[Q] How about COC(=O)Nc1nc2ccc(Oc3ccc(NC(=O)Nc4cccc(C(=O)O)c4)cc3)cc2[nH]1 ?
[A] inactive

[Q] How about Cc1nn(-c2nc3ccccc3s2)c(C)c1Oc1ccccc1O ?
[A] inactive

[Q] How about CC(C)=CCC[C@H](C)[C@@H]1CC[C@]2(C)C3CC[C@]4(OC4(C)C)C(CCCO)[C@]3(C)CC[C@@]12C (stereo partly drawn) ?
[A] inactive
